The values you see were collected from patent US20250282874A1.

// values below are reported EC50
- system.under.test: T1, human PD-L1-His (human, UniProt Q9NZQ7 19-238, limits assumed)
- T1 construct: not shown: His tag
- assay.details: ELISA, human PD-L1-His coated, anti-human IgG-HRP, OD450
Kindly answer with a numeric value in nM, unit omitted.

Task item: Please supply the value of reported EC50 for the item Hu4B6_HcLb (antibody, human IgG1, V domains shown) VH: QVQLVQSGAEVKKPGASVKVSCKASGYVFTDYYMNWVRQAPGQGLEWMGDINPNNGGTSYNHKFKGRVTVTVDKSISTAYMELSRLRSDDTAVYYCARWGDGPFAYWGQGTLVTVSS VL: DIQMTQSPSSLSASVGDRVTITCKASQNVGAAVAWYQQKPGKSPKLLIYSASNRYTGVPDRFSGSGSGTDFTLTISSLQPEDIATYYCQQYSNYPTFGQGTKLEIK
Reply: 3.44

Task item: Determine from records and report EC50 for Chimeri 4B6 (antibody, V domains shown, spelling as printed; also called chimeric 4B6; mouse/chimeric antibody 4B6) VH: EVQLQQSGPELVKPGASVKISCKASGYVFTDYYMNWVKQSHGKSLEWIGDINPNNGGTSYNHKFKGKATVTVDKSSRTAYMELLSLTSEDSAVYYCVKWGDGPFAYWGQGTLVTVSA VL: DIVMTQSQKFMSTSVGDRVSITCKASQNVGAAVAWYQQKPGQSPKLLIYSASNRYTGVPDRFTGSGSGTDFTLTISNMQSEDLADYFCQQYSNYPTFGSGTKLGIK
Reply: 2.05

Task item: Assign EC50 to the following record: Hu4B6_HbLa (antibody, human IgG1, V domains shown) VH: QVQLVQSGAEVKKPGASVKVSCKASGYTFTDYYMNWVRQAPGQGLEWMGDINPNNGGTSYNHKFKGRVTVTVDTSISTAYMELSRLRSDDTAVYYCVKWGDGPFAYWGQGTLVTVSS VL: DIQMTQSPSSLSASVGDRVTITCKASQNVGAAVAWYQQKPGKAPKLLIYSASNRYTGVPSRFSGSGSGTDFTLTISSLQPEDIATYYCQQYSNYPTFGQGTKLEIK
Reply: 2.38
